Biological target: thromboxane (Homo sapiens)
Construct: endogenous in cells
Sequence (P21731 whole entry): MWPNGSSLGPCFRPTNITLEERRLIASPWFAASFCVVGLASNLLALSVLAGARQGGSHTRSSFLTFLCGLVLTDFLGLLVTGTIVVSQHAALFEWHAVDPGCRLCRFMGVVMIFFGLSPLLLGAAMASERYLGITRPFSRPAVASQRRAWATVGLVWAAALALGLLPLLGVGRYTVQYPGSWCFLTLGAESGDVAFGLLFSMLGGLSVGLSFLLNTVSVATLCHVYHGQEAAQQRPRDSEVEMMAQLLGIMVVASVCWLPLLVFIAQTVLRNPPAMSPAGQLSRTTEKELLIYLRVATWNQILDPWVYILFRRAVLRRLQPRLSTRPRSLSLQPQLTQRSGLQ
Test: Thromboxane-antagonistic activity: displacement of 3H-labelled ligand on washed human platelets
Conditions: displacement of 3H-ligand, human platelet suspension, 60 min ambient temperature
pIC50: −log10 of the molar value.
// pIC50 lookup, one value per entry

| Compound | pIC50 |
| --- | --- |
| Cc1ccc(S(=O)(=O)NC2Cc3ccc(C(=CCCCC(=O)O)c4cccnc4)cc3C2)cc1 (centres unmarked) | 7.64 |
| O=C(O)CCCC=C(c1ccc(CCNS(=O)(=O)c2ccc(C(F)(F)F)cc2)cc1)c1cccnc1 | 7.55 |
| O=C(O)CCCC=C(c1ccc(CCNS(=O)(=O)c2ccc(Cl)cc2)cc1)c1cccnc1 | 7.70 |
| O=C(O)CCCCC(c1cccnc1)c1ccc2c(c1)CC(NS(=O)(=O)c1ccc(Cl)cc1)C2 (centres unmarked) | 7.10 |
| O=C(O)CCCCC(c1ccc(CCNS(=O)(=O)c2ccc(Cl)cc2)cc1)c1cccnc1 (centres unmarked) | 7.10 |

Provenance of the data: patent US5681961A
